These molecules were tested on WDR5 (Homo sapiens); pIC50 is the recorded read-out.
pIC50: −log10 of the molar value.

entry_smiles: CCOc1cc([C@H](C)N2CCc3c(cc(CCN4C[C@@H](O)[C@H]4C)cc3-c3ccc(F)nc3C)C2=O)ncc1C#N
pIC50: > 8.00
--
entry_smiles: CCOc1cc([C@H](C)N2CCc3c(Cl)cc(Cn4ccnc4NC)cc3C2=O)ncc1F
pIC50: 6.00 to 8.00
--
entry_smiles: CNc1nccn1Cc1cc2c(c(-c3cc(CO)cnc3Cl)c1)CCN(Cc1cccc(OC(F)F)c1)C2=O
pIC50: 6.00 to 8.00
--
entry_smiles: CCOc1cc([C@H](C)N2CCc3c(cc(CCN(C)CC)cc3-c3cc(C(C)(C)O)ncc3C)C2=O)ncc1C#N
pIC50: > 8.00

----------
- measured_target: UniProt:P61964
- measurement_description: WDR5 HTRF binding assay
- test_context: read-out: (a) WDR5 HTRF Pep Val v.1[Inhibitor/IC50]Qualified AC50
pIC50: −log10 of the molar value.
Collected pIC50 values appear next to each entry.

entry_smiles: CCOc1cc([C@H](C)N2CCc3c(cc(CCN(C)CC)cc3-c3cc(C)ncc3F)C2=O)ncc1C#N
pIC50: 6.00 to 8.00
--
entry_smiles: CNc1nccn1Cc1cc(-c2cc(CO)cnc2Cl)c2ccn(Cc3cccc(OC)c3)c(=O)c2c1
pIC50: 6.00 to 8.00
--
entry_smiles: CCOc1cc([C@@H](C)N2CCc3c(cc(CCN4C[C@@H](O)[C@H]4C)cc3-c3cc(C)ncc3C)C2=O)ncc1C#N
pIC50: 6.00 to 8.00
--
entry_smiles: CCOc1cc([C@H](C)N2CCc3c(cc(Cn4ccnc4C)cc3-c3cn(C)c(=O)cc3C(F)(F)F)C2=O)ncc1C#N
pIC50: > 8.00

----------
- measured_target: WDR5 (Homo sapiens, UniProt P61964)

compound: CCOc1cc([C@H](C)N2CCc3c(cc(CCN(C)CC)cc3N3CC[C@H](O)C3)C2=O)ncc1C#N
IC50: 10 to 1000 nM
--
compound: CCOc1cc(CN2CCc3c(CN4CC(C)C4)cc(Cn4ccnc4NC)cc3C2=O)cnc1C#N
IC50: 10 to 1000 nM
--
compound: CCOc1cc(CN2CCc3c(cc(Cn4ccnc4NC)cc3C3CC3)C2=O)cnc1C#N
IC50: 10 to 1000 nM
--
compound: CNc1nccn1Cc1cc2c(c(-c3cc(CO)cnc3Cl)c1)CCN(Cc1cccc(OC)c1)C2=O
IC50: < 10 nM
--
compound: CCOc1cc([C@H](C)N2CCc3c(cc(Cn4cc(C)nc4C)cc3-c3cn(C)c(=O)cc3C)C2=O)ncc1C#N
IC50: < 10 nM
--
compound: CCOc1cc(CN2CCc3c(cc(CCN(C)CC)cc3-c3cc(C)cnc3C(F)F)C2=O)ncc1C#N
IC50: 10 to 1000 nM
--
compound: CCOc1cc(C(C)N2CCc3c(cc(CCN(C)CC)cc3-n3cccn3)C2=O)ncc1C#N (stereo not drawn)
IC50: 10 to 1000 nM
--
compound: CNc1nccn1Cc1cc2c(c(-c3cc(CO)cnc3Cl)c1)CCN(Cc1cc(OC)c(F)cc1F)C2=O
IC50: 10 to 1000 nM
--
compound: CCOc1cc([C@H](C)N2CCc3c(cc(CCN(C)CC)cc3-c3cc(C)ncc3Cl)C2=O)ncc1C#N
IC50: < 10 nM
--
compound: CNc1nccn1Cc1cc(-c2cc(CO)cnc2Cl)c2ccn([C@H](C)c3cccc(OC)c3)c(=O)c2c1
IC50: 10 to 1000 nM
--
compound: CCOc1cc(C(C)N2CCc3c(cc(CCN(C)CC)cc3-c3ccc(Cl)nc3C)C2=O)ncc1C#N (stereo not drawn)
IC50: 10 to 1000 nM
--
compound: CCOc1cc([C@H](C)N2CCc3c(cc(Cn4cc(C)nc4C)cc3-c3cn(C)nc3C)C2=O)ncc1C#N
IC50: < 10 nM
--
compound: CCOc1cc([C@H](C)N2CCc3c(cc(Cn4ccnc4C)cc3-c3cn(S(C)(=O)=O)nc3C)C2=O)ncc1C#N
IC50: < 10 nM
--
compound: CCOc1cc([C@H](C)N2CCc3c(cc(CCN(C)CC)cc3-c3ccc(F)nc3C)C2=O)ncc1C#N
IC50: < 10 nM
--
compound: CCOc1cc([C@H](C)N2CCc3c(cc(Cn4ccnc4NC)cc3C3CC3)C2=O)ncc1F
IC50: 10 to 1000 nM

----------
Test system WDR5 (Homo sapiens), IC50 listed for each of the molecules.

entry_smiles: CCOc1cc([C@H](C)N2CCc3c(cc(CCN(C)CCOC)cc3-c3cn(C)c(=O)cc3Cl)C2=O)ncc1C#N
IC50: < 10 nM
--
entry_smiles: CCN(C)CCc1cc2c(c(-c3ccc(F)nc3C)c1)CCN(Cc1cnc(F)c(OC)c1)C2=O
IC50: < 10 nM
--
entry_smiles: CCOc1cc([C@H](C)N2CCc3c(cc(CCN(C)CC)cc3-c3c(OC)ccnc3C)C2=O)ncc1C#N
IC50: < 10 nM

----------
- measured_target: wild type MLL1 four-member complex (MLL1-4C) (Homo sapiens)
- measurement_description: MLL1 LC-MS assay (SAH production)
- Format: biochemical
- test_context: read-out: (b) MLL LCMS Peptide Val.v.1 Qualified AC50

compound: CCOc1cc([C@H](C)N2CCc3c(Cl)cc(Cn4ccnc4NC)cc3C2=O)ncc1F
AC50: 0.01 to 1 µM
//
compound: CCOc1cc(CN2CCc3c(cc(CCN(C)CC)cc3C(OC)C(F)(F)F)C2=O)ncc1C#N (stereo not shown)
AC50: 0.01 to 1 µM
//
compound: CNc1nccn1Cc1cc2c(c(-c3cc(CO)cnc3Cl)c1)CCN(Cc1ccc(F)c(F)c1)C2=O
AC50: 0.01 to 1 µM
//
compound: CNc1nccn1Cc1cc(-c2cc(C(C)O)cnc2Cl)c2ccn(Cc3ccc(F)c(OC)c3)c(=O)c2c1 (stereo not shown)
AC50: 0.01 to 1 µM
//
compound: CCOc1cc(CN2CCc3c(cc(CCN(C)CC)cc3-c3cc(N)cnc3C)C2=O)ncc1C#N
AC50: 0.01 to 1 µM
//
compound: CCOc1cc([C@H](C)N2CCc3c(cc(CCN4C[C@@H](O)[C@H]4C)cc3-c3cn(C)nc3C(F)F)C2=O)ncc1C#N
AC50: 0.01 to 1 µM
//
compound: CCOc1cc(C(C)N2CCc3c(cc(CCN(C)CC)cc3C3=CCNCC3)C2=O)ncc1C#N (stereo not shown)
AC50: 1 to 25 µM

----------
- measured_target: WDR5 (Homo sapiens)
pIC50: −log10 of the molar value.

compound: CCOc1cc([C@H](C)N2CCc3c(CN4CC[C@@H](F)C4)cc(Cn4ccnc4NC)cc3C2=O)ncc1F [Example 14]
measured_target: WDR5 (Homo sapiens)
pIC50: 6.00 to 8.00
--
compound: CCOc1cc([C@H](C)N2CCc3c(cc(Cn4ccnc4C)cc3-c3cn(C(F)F)nc3C)C2=O)ncc1C#N [Example 286]
measured_target: WDR5 (Homo sapiens)
pIC50: > 8.00
--
compound: CCOc1cc([C@H](C)N2CCc3c(cc(CCN(C)CCO)cc3-c3ccc(F)nc3C)C2=O)ncc1C#N [Example 252]
measured_target: WDR5 (Homo sapiens)
pIC50: 6.00 to 8.00
--
compound: CCOc1cc([C@H](C)N2CCc3c(cc(CCN(C)CC)cc3-c3cc(C)ncc3C)C2=O)ncc1C#N [Example 163]
measured_target: WDR5 (Homo sapiens)
pIC50: > 8.00
--
compound: CNc1nccn1Cc1cc(CN2CC(F)(F)C2)c2c(c1)C(=O)N([C@@H](C)c1cc(OC)c(F)cn1)CC2 [Example 48]
measured_target: WDR5 (Homo sapiens)
pIC50: 6.00 to 8.00
--
compound: CCOc1cc(C(C)N2CCc3c(cc(CCN(C)CC)cc3-c3cccnc3CC)C2=O)ncc1C#N (stereo not shown) [Example 151]
measured_target: WDR5 (Homo sapiens)
pIC50: 6.00 to 8.00
--
compound: CCN(C)CCc1cc2c(c(-c3cn(C)nc3C)c1)CCN([C@@H](C)c1cnc(F)c(OC)c1)C2=O [Example 123]
measured_target: WDR5 (Homo sapiens)
pIC50: > 8.00

----------
Values of pIC50 reported for UniProt:P61964 appear below.
pIC50: −log10 of the molar value.
value_type: pIC50

compound: CCOc1cc([C@H](C)N2CCc3c(cc(CCN(C)CC)cc3-c3cc(OC)cnc3C)C2=O)ncc1C#N
result: > 8.00
--
compound: CNc1nccn1Cc1cc2c(c(-c3c[nH]nc3C)c1)CCN(Cc1ccc(F)c(OC)c1)C2=O
result: 6.00 to 8.00
--
compound: CCOc1cc([C@H](C)N2CCc3c(cc(CCN(C)CC)cc3-c3cn(C)nc3C)C2=O)ncc1C#N
result: > 8.00
--
compound: CCOc1cc([C@H](C)N2CCc3c(cc(CCN(C)CC)cc3-c3cn(C)c(=O)c(F)c3C)C2=O)ncc1C#N
result: > 8.00
--
compound: CCOc1cc([C@H](C)N2CCc3c(cc(CCN(C)CC(C)O)cc3-c3cn(C)c(=O)cc3Cl)C2=O)ncc1C#N (stereo partly drawn)
result: > 8.00
--
compound: CCOc1cc([C@H](C)N2CCc3c(cc(Cn4ccnc4C)cc3-c3cn(C)nc3C)C2=O)ncc1C(N)=O (single isomer, unassigned)
result: > 8.00
--
compound: CCOc1cc([C@H](C)N2CCc3c(cc(CCN(C)CC)cc3-c3cc(CO)cnc3Cl)C2=O)ncc1C#N
result: > 8.00
--
compound: CCOc1cc([C@H](C)N2CCc3c(cc(CCN(C)CC)cc3-c3ccc(N)nc3C)C2=O)ncc1C#N
result: > 8.00
--
compound: CCOc1cc(C(C)N2CCc3c(cc(CCN(C)CC)cc3-c3cc(OC)ncc3Cl)C2=O)ncc1C#N (stereo not drawn)
result: > 8.00
--
compound: CCOc1cc([C@H](C)N2CCc3c(cc(Cn4ccnc4C)cc3-c3cn(C)nc3C)C2=O)nnc1C#N (single isomer, unassigned)
result: > 8.00
--
compound: CCOc1cc(CN2CCc3c(Br)cc(Cn4ccnc4NC)cc3C2=O)cnc1C#N
result: 6.00 to 8.00
--
compound: CCOc1cc([C@H](C)N2CCc3c(cc(Cn4ccnc4C)cc3-c3ccnn3C)C2=O)ncc1C#N
result: > 8.00
--
compound: CCOc1cc([C@H](C)N2CCc3c(CN4CC(F)C4)cc(Cn4ccnc4NC)cc3C2=O)ncc1F
result: 6.00 to 8.00
--
compound: CNc1nccn1Cc1cc(CN(C)CCF)c2c(c1)C(=O)N([C@@H](C)c1cc(OC)c(F)cn1)CC2
result: 6.00 to 8.00
--
compound: CNc1nccn1Cc1cc(CN2CC(F)C2)c2c(c1)C(=O)N(Cc1cnc(F)c(OC)c1)CC2
result: 6.00 to 8.00
